# Target entity: FGFR2 (Homo sapiens (Human), UniProt P21802)
# Sequence (P21802 22-821): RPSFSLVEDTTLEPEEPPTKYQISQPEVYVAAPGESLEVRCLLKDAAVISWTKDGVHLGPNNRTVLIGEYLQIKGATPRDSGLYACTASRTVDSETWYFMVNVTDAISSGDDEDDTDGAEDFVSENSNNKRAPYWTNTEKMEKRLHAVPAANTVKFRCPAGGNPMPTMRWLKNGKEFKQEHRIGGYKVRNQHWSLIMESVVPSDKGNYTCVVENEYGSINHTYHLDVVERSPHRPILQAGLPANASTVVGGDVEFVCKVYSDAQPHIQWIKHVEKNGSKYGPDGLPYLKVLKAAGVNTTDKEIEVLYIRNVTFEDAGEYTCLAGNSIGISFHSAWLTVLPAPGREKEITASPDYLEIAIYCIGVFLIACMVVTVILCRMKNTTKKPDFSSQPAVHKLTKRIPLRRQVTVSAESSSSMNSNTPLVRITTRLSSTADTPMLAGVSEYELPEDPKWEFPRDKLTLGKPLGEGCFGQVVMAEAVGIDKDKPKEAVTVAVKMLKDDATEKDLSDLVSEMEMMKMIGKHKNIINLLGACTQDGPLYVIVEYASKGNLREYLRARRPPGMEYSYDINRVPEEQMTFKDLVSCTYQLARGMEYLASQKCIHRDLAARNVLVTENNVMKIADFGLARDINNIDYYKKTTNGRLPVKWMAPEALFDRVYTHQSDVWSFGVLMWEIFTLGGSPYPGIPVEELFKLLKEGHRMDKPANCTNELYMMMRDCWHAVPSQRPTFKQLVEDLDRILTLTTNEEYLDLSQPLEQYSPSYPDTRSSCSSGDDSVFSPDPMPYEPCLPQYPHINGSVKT
# Test method notes: Kinase assay, binding constants (Kd), kinase-tagged T7 phage, qPCR
Endpoint: Kd

[
  {
    "Compound": "C[C@@H](Oc1ccc2[nH]nc(-c3cnn(C4CCN(C(=O)CN(C)C)CC4)c3)c2c1)c1c(Cl)cncc1Cl [Example 81]",
    "Target entity": "FGFR2 (Homo sapiens (Human), UniProt P21802)",
    "Endpoint": "Kd",
    "Val": "1 to 20 nM"
  }
]

For each listed entry, give its Kd.
1. COc1cc2[nH]nc(-c3ccc(N4CC5(COC5)C4)nc3)c2cc1O[C@H](C)c1c(Cl)cnc(C)c1Cl [Example 211]
2. Cc1cnnc(C)c1[C@@H](C)Oc1ccc2[nH]nc(-c3cnc(N4CC(O)C4)c(C#N)c3)c2c1 [Example 318]
3. COc1cc2[nH]nc(-c3ccc(N4CCCC4)nc3)c2cc1O[C@H](C)c1c(Cl)cnc(C)c1Cl [Example 220]
4. C[C@@H](Oc1ccc2[nH]nc(-c3cnc(N4CC5(C4)CN(S(C)(=O)=O)C5)c(C#N)c3)c2c1)c1c(Cl)cncc1Cl [Example 337]
5. C[C@@H](Oc1cc2c(-c3cnc(N4CC5(CCCS(=O)(=O)C5)C4)c(C#N)c3)n[nH]c2cc1F)c1c(Cl)cncc1Cl [Example 362]
6. Cc1ncc(Cl)c([C@@H](C)Oc2ccc3[nH]nc(-c4cnc(N5CC(CC(F)(F)F)C5)c(C#N)c4)c3c2)c1Cl [Example 295]

Response:
["1 to 20 nM", "100 to 300 nM", "20 to 100 nM", "100 to 300 nM", "100 to 300 nM", "> 300 nM"]

For each listed entry, give its Kd.
1. COc1cc(-c2n[nH]c3ccc(O[C@H](C)c4c(C)cnnc4C)cc23)cnc1N1CC2CC(C1)N2CC(C)(C)O [Example 323]
2. C[C@@H]1CCN1c1ncc(-c2n[nH]c3cc(Cl)c(O[C@H](C)c4c(Cl)cncc4Cl)cc23)cc1F [Example 272]

Response:
1. > 300 nM
2. > 300 nM

====

# Target entity: FGFR4 (Homo sapiens (Human), UniProt P22455)
# Sequence (P22455 22-802): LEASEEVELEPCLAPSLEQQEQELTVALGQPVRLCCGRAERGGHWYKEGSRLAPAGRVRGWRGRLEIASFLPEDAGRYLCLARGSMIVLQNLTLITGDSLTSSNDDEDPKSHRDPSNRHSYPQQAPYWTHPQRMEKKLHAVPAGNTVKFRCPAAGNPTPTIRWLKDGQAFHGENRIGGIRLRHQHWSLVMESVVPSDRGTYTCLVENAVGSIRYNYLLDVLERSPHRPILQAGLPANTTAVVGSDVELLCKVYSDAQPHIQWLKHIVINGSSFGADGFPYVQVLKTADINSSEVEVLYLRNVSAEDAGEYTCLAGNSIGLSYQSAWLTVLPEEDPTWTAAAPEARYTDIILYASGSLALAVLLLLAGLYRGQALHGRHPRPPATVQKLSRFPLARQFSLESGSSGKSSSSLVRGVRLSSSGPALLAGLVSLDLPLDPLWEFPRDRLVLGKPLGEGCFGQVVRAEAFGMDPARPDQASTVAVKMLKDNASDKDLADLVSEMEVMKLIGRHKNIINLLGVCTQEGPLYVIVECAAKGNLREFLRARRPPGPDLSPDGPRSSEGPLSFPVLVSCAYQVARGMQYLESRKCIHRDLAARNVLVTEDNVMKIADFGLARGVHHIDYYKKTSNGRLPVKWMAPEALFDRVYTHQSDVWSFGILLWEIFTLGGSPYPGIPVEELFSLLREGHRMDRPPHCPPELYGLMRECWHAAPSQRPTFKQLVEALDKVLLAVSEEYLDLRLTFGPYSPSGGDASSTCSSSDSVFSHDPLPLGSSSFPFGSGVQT
# Test method notes: Kinase assay, binding constants (Kd), kinase-tagged T7 phage, qPCR
Endpoint: Kd

[
  {
    "Smiles representation": "C[C@@H](Oc1ccc2[nH]nc(-c3cnc(N4CC5(CCCNC5)C4)nc3)c2c1)c1c(Cl)cncc1Cl",
    "Kd": "1 to 20 nM"
  },
  {
    "Smiles representation": "C[C@@H](Oc1ccc2[nH]nc(-c3cnc(N4CCC5(CCCN5C)CC4)nc3)c2c1)c1c(Cl)cncc1Cl",
    "Kd": "1 to 20 nM"
  },
  {
    "Smiles representation": "COc1cc2[nH]nc(-c3cnc(N4CC[C@H](O)C4)c(C#N)c3)c2cc1O[C@H](C)c1c(Cl)cncc1Cl",
    "Kd": "1 to 20 nM"
  }
]

For each listed entry, give its Kd.
1. Cc1cnnc(C)c1[C@H](C)Oc1ccc2[nH]nc(-c3cnc(N4CC5(C4)CN(S(C)(=O)=O)C5)nc3)c2c1
2. Cc1cnnc(C)c1[C@H](C)Oc1ccc2[nH]nc(-c3ccc(N4CC5(C4)CN(S(C)(=O)=O)C5)nc3)c2c1
3. Cc1cc2[nH]nc(-c3cnc(N4CC5(C4)CN(S(C)(=O)=O)C5)c(F)c3)c2cc1O[C@H](C)c1c(Cl)cnc(C)c1Cl

Response:
["100 to 300 nM", "100 to 300 nM", "1 to 20 nM"]

For each listed entry, give its Kd.
1. CC(C)S(=O)(=O)N1CC2(CN(c3ncc(-c4n[nH]c5ccc(O[C@H](C)c6c(Cl)cncc6Cl)cc45)cn3)C2)C1
2. CCS(=O)(=O)N1CCCC2(CN(c3ccc(-c4n[nH]c5ccc(O[C@H](C)c6c(C)cnnc6C)cc45)cn3)C2)C1

Response:
1: 1 to 20 nM; 2: 20 to 100 nM

====

Provide the recorded Kd for the entries that follow.
# Target entity: FGFR1 (Homo sapiens (Human), UniProt P11362)
# Sequence (P11362 22-822): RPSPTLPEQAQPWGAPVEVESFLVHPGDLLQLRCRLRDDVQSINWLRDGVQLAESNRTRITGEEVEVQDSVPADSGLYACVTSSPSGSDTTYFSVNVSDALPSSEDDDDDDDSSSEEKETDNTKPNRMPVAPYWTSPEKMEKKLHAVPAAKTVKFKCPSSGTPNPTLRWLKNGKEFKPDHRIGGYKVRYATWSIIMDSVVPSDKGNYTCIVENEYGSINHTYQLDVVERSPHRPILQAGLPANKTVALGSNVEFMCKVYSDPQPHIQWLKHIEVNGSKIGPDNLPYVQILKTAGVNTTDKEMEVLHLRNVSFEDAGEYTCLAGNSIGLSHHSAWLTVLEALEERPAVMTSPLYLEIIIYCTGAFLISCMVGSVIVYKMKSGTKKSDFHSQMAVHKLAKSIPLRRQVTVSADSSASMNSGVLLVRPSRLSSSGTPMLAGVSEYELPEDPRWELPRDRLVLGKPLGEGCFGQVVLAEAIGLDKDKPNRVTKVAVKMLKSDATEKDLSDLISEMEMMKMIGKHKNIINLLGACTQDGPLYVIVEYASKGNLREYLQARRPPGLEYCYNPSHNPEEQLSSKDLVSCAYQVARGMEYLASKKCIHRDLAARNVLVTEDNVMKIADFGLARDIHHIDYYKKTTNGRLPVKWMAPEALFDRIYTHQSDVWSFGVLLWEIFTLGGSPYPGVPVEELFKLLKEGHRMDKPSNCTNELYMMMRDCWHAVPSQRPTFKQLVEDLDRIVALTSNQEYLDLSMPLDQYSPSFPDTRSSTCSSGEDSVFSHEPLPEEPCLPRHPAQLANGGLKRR
# Test method notes: Kinase assay, binding constants (Kd), kinase-tagged T7 phage, qPCR

Some solved cases for reference:
[
  {
    "Compound": "Cc1cnnc(C)c1[C@@H](C)Oc1ccc2[nH]nc(-c3cnc(N4CCN5C(=O)NCC5C4)c(C#N)c3)c2c1 (stereo partly drawn) [Example 325]",
    "Kd": "20 to 100 nM"
  },
  {
    "Compound": "COC(=O)N1CC2(C1)CN(c1ccc(-c3n[nH]c4ccc(O[C@H](C)c5c(Cl)cnc(F)c5Cl)cc34)cn1)C2 [Example 195]",
    "Kd": "100 to 300 nM"
  },
  {
    "Compound": "C[C@@H](Oc1ccc2[nH]nc(-c3cnc(N4CC[C@@H](C(C)(C)O)C4)c(C#N)c3)c2c1)c1c(Cl)cncc1Cl [Example 294]",
    "Kd": "> 300 nM"
  },
  {
    "Compound": "Cc1cc2[nH]nc(-c3cnc(N4CC5(C4)CN(S(C)(=O)=O)C5)c(F)c3)c2cc1O[C@H](C)c1c(Cl)cnnc1Cl [Example 259]",
    "Kd": "1 to 20 nM"
  },
  {
    "Compound": "C[C@@H](Oc1ccc2[nH]nc(-c3ccc(N4CCNC5(CC5)C4)nc3)c2c1)c1c(Cl)cncc1Cl [Example 21]",
    "Kd": "1 to 20 nM"
  }
]

For each listed entry, give its Kd.
1. C[C@@H](Oc1ccc2[nH]nc(-c3cnc(N4CC[C@@H](O)C4)c(C#N)c3)c2c1)c1c(Cl)cnc(F)c1Cl [Example 284]
2. C[C@@H](Oc1ccc2[nH]nc(-c3ccc(N4CC5(CCCN(S(C)(=O)=O)C5)C4)nc3)c2c1)c1c(Cl)cncc1Cl [Example 162]
3. COc1cc2[nH]nc(-c3ccc(N4CC(O)C4)nc3)c2cc1O[C@H](C)c1c(Cl)cnc(C)c1Cl [Example 208]
4. C[C@@H](Oc1ccc2[nH]nc(-c3cnc(N4CCC5(CC4)C(=O)NCCN5C)c(F)c3)c2c1)c1c(Cl)cncc1Cl [Example 44]
5. COc1cc2[nH]nc(-c3cnc(N4CCCC4)c(C#N)c3)c2cc1O[C@H](C)c1c(Cl)cncc1Cl [Example 333]
6. C[C@@H](Oc1ccc2[nH]nc(-c3cnc(N4CCCN(C(N)=O)CC4)nc3)c2c1)c1c(Cl)cncc1Cl [Example 62]

Response:
1: > 300 nM; 2: 20 to 100 nM; 3: 20 to 100 nM; 4: 1 to 20 nM; 5: 100 to 300 nM; 6: 20 to 100 nM

Query: Given the compound Cc1ncc(Cl)c([C@@H](C)Oc2ccc3[nH]nc(-c4ccc(N5CCC[C@@H]5CO)nc4)c3c2)c1Cl [Example 232] , write its reported Kd.
Response: 20 to 100 nM

====

# Target entity: FGFR3 (V555M) (Homo sapiens (Human), UniProt P22607, V555M)
# Sequence (P22607 23-806 V555M): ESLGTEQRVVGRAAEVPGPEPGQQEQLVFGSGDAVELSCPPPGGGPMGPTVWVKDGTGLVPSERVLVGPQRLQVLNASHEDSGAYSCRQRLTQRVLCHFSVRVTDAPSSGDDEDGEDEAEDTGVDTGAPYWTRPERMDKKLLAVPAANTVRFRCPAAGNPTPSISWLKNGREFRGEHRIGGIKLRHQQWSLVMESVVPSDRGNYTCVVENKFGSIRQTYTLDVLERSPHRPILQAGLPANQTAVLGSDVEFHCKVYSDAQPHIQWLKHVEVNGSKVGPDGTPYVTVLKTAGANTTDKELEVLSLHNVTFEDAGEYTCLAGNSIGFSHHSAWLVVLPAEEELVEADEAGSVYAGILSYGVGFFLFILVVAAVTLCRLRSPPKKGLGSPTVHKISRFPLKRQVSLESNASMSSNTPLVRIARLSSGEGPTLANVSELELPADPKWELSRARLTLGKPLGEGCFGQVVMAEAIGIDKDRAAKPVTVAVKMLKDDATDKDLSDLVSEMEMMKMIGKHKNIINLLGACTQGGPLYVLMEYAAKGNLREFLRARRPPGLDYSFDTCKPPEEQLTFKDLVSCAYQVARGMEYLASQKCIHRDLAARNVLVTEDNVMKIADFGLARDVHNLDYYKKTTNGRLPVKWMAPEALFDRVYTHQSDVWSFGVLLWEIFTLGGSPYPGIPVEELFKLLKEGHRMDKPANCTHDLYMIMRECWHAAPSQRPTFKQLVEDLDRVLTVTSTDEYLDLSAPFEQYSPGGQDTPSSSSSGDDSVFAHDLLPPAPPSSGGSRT
# Test method notes: Kinase assay, binding constants (Kd), kinase-tagged T7 phage, qPCR
# Condition description: V555M mutant
Provide the recorded Kd for the entries that follow.

[
  {
    "Smiles representation": "C[C@@H](Oc1ccc2[nH]nc(-c3ccc(N4CC5(CCN(C)CC5)OC4=O)nc3)c2c1)c1c(Cl)cncc1Cl",
    "Kd": "1 to 20 nM"
  }
]

For each listed entry, give its Kd.
1. C[C@@H](Oc1ccc2[nH]nc(-c3cnc(N4CCC4)c(C#N)c3)c2c1)c1c(Cl)cnc(F)c1Cl
2. CCOC(=O)N1CC2(C1)CN(c1ccc(-c3n[nH]c4ccc(O[C@H](C)c5c(Cl)cncc5Cl)cc34)cn1)C2
3. Cc1cnnc(C)c1[C@H](C)Oc1ccc2[nH]nc(-c3ccc(N4CC5(C4)CN(S(C)(=O)=O)C5)nc3)c2c1
4. C[C@@H](Oc1ccc2[nH]nc(-c3ccc(C4CCN(S(C)(=O)=O)CC4)nc3)c2c1)c1c(Cl)cncc1Cl
5. CCS(=O)(=O)N1CC2(CN(c3ncc(-c4n[nH]c5ccc(O[C@H](C)c6c(Cl)cncc6Cl)cc45)cn3)C2)C1

Response:
1: > 300 nM; 2: 1 to 20 nM; 3: 20 to 100 nM; 4: 1 to 20 nM; 5: 1 to 20 nM

For each listed entry, give its Kd.
1. C[C@@H](Oc1ccc2[nH]nc(-c3ccc(N4CC5(C4)CN(S(C)(=O)=O)C5)nc3)c2c1)c1cc(F)cc(F)c1
2. C[C@@H](Oc1ccc2[nH]nc(-c3cnn(C4CCNCC4)c3)c2c1)c1cc(F)cc(F)c1

Response:
1 to 20 nM
1 to 20 nM

For each listed entry, give its Kd.
1. C[C@@H](Oc1cc2c(-c3cnc(N4CC5(C4)CN(S(C)(=O)=O)C5)c(C#N)c3)n[nH]c2cc1F)c1c(Cl)cncc1Cl
2. Cc1cc2[nH]nc(-c3cnc(N4CC5(C4)CN(S(C)(=O)=O)C5)c(F)c3)c2cc1O[C@@H](C)c1c(Cl)cnnc1Cl
3. Cc1cnnc(C)c1[C@@H](C)Oc1ccc2[nH]nc(-c3ccc(N4CCN5CCC[C@H]5C4)nc3)c2c1
4. C[C@@H]1CCN1c1ncc(-c2n[nH]c3cc(Cl)c(O[C@H](C)c4c(Cl)cncc4Cl)cc23)cc1F

Response:
1 to 20 nM
1 to 20 nM
1 to 20 nM
20 to 100 nM

For each listed entry, give its Kd.
1. C[C@H](Oc1ccc2[nH]nc(-c3ccc(N4CC5(C4)CN(S(C)(=O)=O)C5)nc3)c2c1)c1c(Cl)cncc1Cl
2. C[C@@H](Oc1ccc2[nH]nc(-c3ccc(N4CCN5C[C@H](O)C[C@H]5C4)nc3)c2c1)c1c(Cl)cncc1Cl
3. Cc1ncc(Cl)c([C@@H](C)Oc2ccc3[nH]nc(-c4cnn(C5CCN(C)CC5)c4)c3c2)c1Cl
4. C[C@@H](Oc1cc2c(-c3cnc(N4CC5(CCCN(S(C)(=O)=O)C5)C4)c(C#N)c3)n[nH]c2cc1F)c1c(Cl)cncc1Cl
5. CC(C)N1CC[C@@H](n2cc(-c3n[nH]c4ccc(O[C@H](C)c5c(Cl)cncc5Cl)cc34)cn2)C1
6. C[C@@H](Oc1cc2c(-c3cnc(N4CC5(C4)CN(S(C)(=O)=O)C5)c(F)c3)n[nH]c2cc1F)c1c(Cl)cncc1Cl
7. Cc1cnnc(C)c1[C@@H](C)Oc1ccc2[nH]nc(-c3ccc(N4CC5(CCS(=O)(=O)C5)C4)nc3)c2c1
8. Cc1cncc(C)c1[C@H](C)Oc1ccc2[nH]nc(-c3ccc(N4CC5(C4)CN(S(C)(=O)=O)C5)nc3)c2c1

Response:
1: 1 to 20 nM; 2: 1 to 20 nM; 3: 1 to 20 nM; 4: 20 to 100 nM; 5: 1 to 20 nM; 6: 1 to 20 nM; 7: 1 to 20 nM; 8: 1 to 20 nM

For each listed entry, give its Kd.
1. C[C@@H](Oc1ccc2[nH]nc(-c3ccc(N4CC5(CN(CC(F)F)C5)C4)nc3)c2c1)c1c(Cl)cncc1Cl
2. Cc1ncc(Cl)c([C@@H](C)Oc2ccc3[nH]nc(-c4ccc(N5CCC[C@H]5CO)nc4)c3c2)c1Cl

Response:
1: 1 to 20 nM; 2: 1 to 20 nM

Reference source for all entries: patent US20240109865A1
